Experiment: Primary qHTS for inhibitors of SARS-S pseudo-typed particle cell entry (AID 1479145); further: nearly all actives have a fitted effect of over 45% in size
Conditions: SARS-S pseudotyped particle cell entry, luciferase reporter; series mostly up to 57.1 µM
Records with an inconclusive call do not appear. Calls of active or inactive are those of the source. The call rests on the fitted dose curve.
Possible outcomes: active, inactive

| compound | group |
| --- | --- |
| CC[C@@H]([C@H](C)O)n1ncn(-c2ccc(N3CCN(c4ccc(OC[C@@H]5CO[C@@](Cn6cncn6)(c6ccc(F)cc6F)C5)cc4)CC3)cc2)c1=O | active |
| CCCN(CCC)S(=O)(=O)c1ccc(C(=O)O)cc1 | inactive |
| Cn1c(=O)c2c(ncn2CC(O)CO)n(C)c1=O (centres undefined) | inactive |
| CC(C)=CC1C(C(=O)OCc2cccc(Oc3ccccc3)c2)C1(C)C (centres undefined) | inactive |
| CC[C@@H](CO)NC(=O)[C@@H]1C=C2c3cccc4c3c(cn4C)C[C@H]2N(C)C1 | inactive |
| NC(=O)OCC(COC(N)=O)c1ccccc1 | inactive |
| O=[N+]([O-])c1cc([As](=O)(O)O)ccc1O | inactive |
| CCOC(=O)[C@H](CCc1ccccc1)N[C@@H](C)C(=O)N1Cc2ccccc2C[C@H]1C(=O)O | inactive |
| COc1ccccc1OCC(O)COC(N)=O (centres undefined) | inactive |
| COC(=O)C1=C(C)NC(C)=C(C(=O)OCC(C)C)C1c1ccccc1[N+](=O)[O-] (centres undefined) | active |
| CC(=O)O[C@]1(C(C)=O)CC[C@H]2[C@@H]3C=C(C)C4=CC(=O)CC[C@]4(C)[C@H]3CC[C@@]21C | inactive |
| O=C(O)CCCc1ccccc1 | inactive |
| CC(=O)N[C@@H](CS)C(=O)O | inactive |
| CC(C)(O)c1ccccc1CC[C@@H](SCC1(CC(=O)O)CC1)c1cccc(/C=C/c2ccc3ccc(Cl)cc3n2)c1 | inactive |
| O[C@@H](c1cc(C(F)(F)F)nc2c(C(F)(F)F)cccc12)[C@H]1CCCCN1 | inactive |
| COc1cc(C(C)=O)ccc1OCCCN1CCC(c2noc3cc(F)ccc23)CC1 | active |
| O=C(O)CCNC(=O)c1ccc(N=Nc2ccc(O)c(C(=O)O)c2)cc1 | inactive |
| OCCN1CCN(CCCN2c3ccccc3Sc3ccc(Cl)cc32)CC1 | active |
| CC(=O)N(O)CCCCCNC(=O)CCC(=O)N(O)CCCCCNC(=O)CCC(=O)N(O)CCCCCN | inactive |
| CCn1cc(C(=O)O)c(=O)c2ccc(C)nc21 | inactive |
| CN1CCC[C@@H]1CCO[C@](C)(c1ccccc1)c1ccc(Cl)cc1 | active |
| O=C1NC(c2ccccc2)(c2ccccc2)C(=O)N1COP(=O)(O)O | inactive |
| CN(C)CCCN1c2ccccc2CCc2ccc(Cl)cc21 | active |
| CC(C)Oc1ccc2c(=O)c(-c3ccccc3)coc2c1 | inactive |
| CC[C@@]1(c2ccccc2)NC(=O)N(C)C1=O | inactive |
| CN1CCN(C(=O)O[C@H]2c3nccnc3C(=O)N2c2ccc(Cl)cn2)CC1 | inactive |
| O=C(O)COCCN1CCN(C(c2ccccc2)c2ccc(Cl)cc2)CC1 (centres undefined) | inactive |
| CNC1(C)C2CCC(C2)C1(C)C (centres undefined) | inactive |
| CCOC(=O)Nc1ccc2c(c1)N(C(=O)CCN1CCOCC1)c1ccccc1S2 | inactive |
| CN1C[C@H]2c3ccccc3Oc3ccc(Cl)cc3[C@@H]2C1 | inactive |
| O=NN(CCCl)C(=O)NC1CCCCC1 | inactive |
| CN1CCN(CCCN2c3ccccc3Sc3ccc(Cl)cc32)CC1 | active |
| C=C(C)[C@H]1Cc2c(ccc3c2O[C@@H]2COc4cc(OC)c(OC)cc4[C@@H]2C3=O)O1 | inactive |
| O=c1[nH]c2ccccc2n1C1CCN(CCCC(c2ccc(F)cc2)c2ccc(F)cc2)CC1 | active |
| Cc1ncc(CNC(=O)N(CCCl)N=O)c(N)n1 | inactive |
| CN(C)[C@@H]1C(=O)C(C(N)=O)=C(O)[C@@]2(O)C(=O)C3=C(O)c4c(O)cccc4[C@@](C)(O)[C@H]3C[C@@H]12 | inactive |
| FC(F)(F)c1cccc(C2=CCN(CCc3ccc4ccccc4c3)CC2)c1 | inactive |
| CC(=O)SC[C@@H](C)C(=O)N1CCC[C@H]1C(=O)N[C@@H](Cc1ccccc1)C(=O)O | inactive |
| O=C1NC(=O)C(c2ccccc2)(c2ccccc2)N1 | inactive |
| O=C1C(=O)c2ccccc2C(O)=C1C1CCC(c2ccc(Cl)cc2)CC1 (centres undefined) | active |
| Cc1oncc1C(=O)Nc1ccc(C(F)(F)F)cc1 | inactive |
| CC[C@@H](CO)NCCN[C@@H](CC)CO | inactive |
| CCCN[C@H]1CCc2nc(N)sc2C1 | inactive |
| O=c1[nH]cc(F)c(=O)[nH]1 | inactive |
